For each of the compounds below, state its z-score.
EXPERIMENTAL DETAILS: E. coli DRC41 culture turbidity changes, primary screen, E. coli filamentation inducer project, strain DRC41, OD650, 48 h (AID 1152);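 also: E. coli MC1000 strain DRC41 lacking acrAB efflux pump and sulA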
CONDITION LABEL: E. coli DRC41 (acrAB sulA), higher = more signal, called active from +8 up or from −8 down
# print the numeric value only

Param item = `COc1ccc([Si](C)(C)[C@H]2[C@H](CCn3cc([C@H](O)c4ccccc4)nn3)O[C@@]3(C(=O)N(Cc4ccc(N5CCC5=O)cc4)c4ccccc43)[C@@H]2C)cc1` ; retrieve measured z-score.
0.503

Entry under review: `C[C@]1(C(=O)NC2CC2)c2ccccc2C(=O)N(Cc2ccc(OC(F)(F)F)cc2)[C@H]1c1ccc(CO)cc1` . Reported z-score?
0.323

For the compound shown here, `CN(C)CCCNC(=O)[C@@H]1c2ccccc2C(=O)N(Cc2ccc(OC(F)(F)F)cc2)[C@H]1c1ccc(CO)cc1` , give the reported z-score.
0.532

Item `CCOC(=O)C1=CC[C@@H](c2ccc([N+](=O)[O-])cc2)N(S(=O)(=O)c2ccc(C)cc2)[C@H]1c1ccccc1` has what recorded z-score?
-0.785

Recorded z-score of `C=CC[C@H](OC(=O)Nc1ccc(OC)cc1)c1ccc(O)c2ccccc12` , please.
-0.326

Given `COCCOC(=O)N1C(=O)[C@@]2(c3cc(C#Cc4ccc(OC)cc4)ccc31)[C@H](C(=O)NC[C@H](O)c1ccccc1)[C@H]1C(=O)O[C@H](c3ccccc3)[C@H](c3ccccc3)N1[C@@H]2c1ccc(O)cc1` , state its recorded z-score.
-0.16

Could you tell me which z-score is on file for `O=c1cccc(-c2ccc(C(F)(F)F)cc2)o1` ?
-1.06

Value lookup for z-score; key = O=C1OCCC=C[C@H]2OC34C=CCN(c5ccc(Cl)cc5)C(=O)[C@H]3N(CCCCCO)C(=O)[C@@H]4C12 (stereo not given in full)
1.81

What value of z-score has been reported for the following compound? `COc1c(C)cc(-c2cc3c(c(-c4ccccc4)n2)[Si](C(C)C)(C(C)C)OC3)cc1C`
0.118

So what does the record say about z-score for `COC(=O)[C@]1(CCS(=O)(=O)c2ccccc2)N=C(c2ccc(OCCCO)cc2)O[C@@H]1c1ccccc1CN=[N+]=[N-]` ?
-2.11

Record request: z-score value, item `COC(=O)[C@@]1(Cc2ccccc2)[C@H]2c3cc(C(=O)N4CCCC4)n(Cc4cc(F)cc5c4OCOC5)c3C[C@H]2CN1C(=O)c1ccccc1`
-1.14

Record request: z-score value, item `C=CC[C@]12N=C(c3ccc(OCCCO)cc3)O[C@H]1c1ccccc1N(C)C2=O`
-0.0028

I am curious: what z-score value has been reported for `[N-]=[N+]=NCc1ccccc1[C@H]1OC(c2ccc(OCCCO)cc2)=N[C@@]1(CCS(=O)(=O)c1ccccc1)C(N)=O` ?
-0.56

Suppose we examine the compound CC(=O)n1cc(C(O)C2C=CC3C(=O)N(c4ccccc4)C(=O)C3N2Nc2ccccc2)c2ccccc21 (stereo not given) ; what z-score value has been reported?
-1.45

Look up z-score: CC(C)c1ccc(NN2C(C(O)c3ccco3)C=CC3C(=O)N(c4ccccc4)C(=O)C32)cc1 (stereo not given)
-0.302
